assay: Half life in beagle dog at 5 mg/kg, po
Assay type: ADME, organism-based, Canis lupus familiaris
Set-up: dose 5 mg/kg, route oral
particulars: in vivo
property: half-life (h)
Provide only the numeric value, understood in h.

Per the record, O=C(c1nc2c(C(F)(F)F)cc(C3CC3)cn2c1Cl)N1CCN([C@H]2CC[C@H](O)CC2)C(=O)C1 has half-life of 10

---

assay: Oral bioavailability in beagle dog at 5 mg/kg
Assay type: ADME, organism-based, Canis lupus familiaris
particulars: in vivo
property: bioavailability (%)
Give the value in % but do not write % after it.

// bioavailability value for O=C(c1nc2c(C(F)(F)F)cc(C3CC3)cn2c1Cl)N1CCN([C@H]2CC[C@H](O)CC2)C(=O)C1 : 65
